Sourced from paper PMC5336394

Molecular target: CypA^V29A (UniProt P62937 1-165, V29A)
Sequence (P62937 whole entry V29A): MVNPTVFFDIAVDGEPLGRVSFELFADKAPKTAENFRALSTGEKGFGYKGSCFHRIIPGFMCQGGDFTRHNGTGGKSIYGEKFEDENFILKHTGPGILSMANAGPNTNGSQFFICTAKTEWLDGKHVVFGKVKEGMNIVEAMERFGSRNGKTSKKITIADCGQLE
Test: NMR titration
measurement-type: Kd (µM)
Give bare numbers, in µM.

Input line: Quick check: Kd of GSFGPDLRAGD [FGP peptide] ?
Output line: 57
